The measurements presented in this section are drawn from paper PMC5700336.

# protocol.details: Single-dose pharmacokinetics in plasma and GI lumen contents
# Type: in vivo, mice
# experimental.context: mouse, plasma, ip; single i.p. dose, both 5 and 20 mg/kg; colonized CF-1 mice; LC-MS/MS; three mice per time point; read-out: time of Cmax, plasma
observation.type: Tmax (h)

structure.smiles: CC[C@H](C)C[C@H](C)CCCCCCCCC(=O)N[C@H]1C[C@@H](O)[C@@H](NCCN)NC(=O)[C@@H]2[C@@H](O)CCN2C(=O)[C@H]([C@H](O)CCN)NC(=O)[C@H]([C@H](O)[C@@H](O)c2ccc(O)cc2)NC(=O)[C@@H]2C[C@@H](O)CN2C(=O)[C@H]([C@@H](C)O)NC1=O
result.units: h
readout.value: 2
